- Test system: Staphylococcus aureus
- run-description: Antibacterial activity against Staphylococcus aureus ATCC 9144 incubated for 48 hrs and measured by broth microdilution assay
- Type: functional
// classify: if (MIC < 4 µg/mL) satisfied else not satisfied

Answered cases to consult:
>  <molecule>
CC(C)(C)c1ccc(CC2(Cc3cc(Br)cc(Br)c3)C(=O)N(CCCCNC(=N)N)C(=O)N(CCCCNC(=N)N)C2=O)cc1.O=C(O)C(F)(F)F.O=C(O)C(F)(F)F (stereo not given)

>  <target-or-system>
Staphylococcus aureus

>  <assigned-class>
satisfied

$$$$
>  <molecule>
N=C(N)N[C@H]1C[C@@H](N2C(=O)N([C@H]3C[C@@H](NC(=N)N)C3)C(=O)C(Cc3cc(Br)cc(Br)c3)(Cc3cc(Br)cc(Br)c3)C2=O)C1.O=C(O)C(F)(F)F.O=C(O)C(F)(F)F

>  <target-or-system>
Staphylococcus aureus

>  <assigned-class>
satisfied

$$$$
>  <molecule>
N=C(N)NCCCCN1C(=O)N(CCCCNC(=N)N)C(=O)C(Cc2cc(Br)cc(Br)c2)(Cc2ccc(Br)c3ccccc23)C1=O.O=C(O)C(F)(F)F.O=C(O)C(F)(F)F (stereo not given)

>  <target-or-system>
Staphylococcus aureus

>  <assigned-class>
satisfied

$$$$

Request: Hello, is MIC of the following molecule strictly smaller than 4 µg/mL? CC(C)(C)c1ccc(CC2(Cc3cc(Br)cc(Br)c3)C(=O)N(CCCNC(=N)N)C(=O)N(CCCNC(=N)N)C2=O)cc1.O=C(O)C(F)(F)F.O=C(O)C(F)(F)F (stereo not given)
Response: satisfied

Request: Hello, is MIC of the following molecule strictly smaller than 4 µg/mL? CCCCCCC1(Cc2cc(Br)cc(Br)c2)C(=O)N(CCCCNC(=N)N)C(=O)N(CCCCNC(=N)N)C1=O.O=C(O)C(F)(F)F.O=C(O)C(F)(F)F (stereo not given)
Response: satisfied

====

- Tested on: Staphylococcus aureus
- run-description: Antibacterial activity against Staphylococcus aureus ATCC 9144 incubated for 48 hrs and measured by broth microdilution assay
- Format: functional
Field: MIC. Provide a value for each of the molecules that follow.
One number for each entry, in µg/mL.

// solved cases for MIC follow
>  <molecule>
N=C(N)NCCCCN1C(=O)N(CCCCNC(=N)N)C(=O)C(Cc2ccc3cc(Br)ccc3n2)(Cc2ccc3cc(Br)ccc3n2)C1=O.O=C(O)C(F)(F)F.O=C(O)C(F)(F)F

>  <u>
µg/mL

>  <MIC>
2

$$$$
>  <molecule>
NCCCN1C(=O)N(CCCN)C(=O)C(Cc2cc(Br)cc(Br)c2)(Cc2cc(Br)cc(Br)c2)C1=O.O=C(O)C(F)(F)F.O=C(O)C(F)(F)F

>  <u>
µg/mL

>  <MIC>
4

$$$$
>  <molecule>
N=C(N)NCCCCN1C(=O)N(CCCCNC(=N)N)C(=O)C(Cc2ccc(C(F)(F)F)cc2)(Cc2cc(Br)cc(Br)c2)C1=O.O=C(O)C(F)(F)F.O=C(O)C(F)(F)F (stereo unspecified)

>  <u>
µg/mL

>  <MIC>
2

$$$$
>  <molecule>
NCCCCN1C(=O)N(CCCCN)C(=O)C(Cc2cc(Br)cc(Br)c2)(Cc2ccc(Br)c3ccccc23)C1=O.O=C(O)C(F)(F)F.O=C(O)C(F)(F)F

>  <u>
µg/mL

>  <MIC>
4

$$$$
>  <molecule>
Cl.Cl.N=C(N)NCCCN1C(=O)N(CCCNC(=N)N)C(=O)C(Cc2cc(C(F)(F)F)cc(C(F)(F)F)c2)(Cc2cc(C(F)(F)F)cc(C(F)(F)F)c2)C1=O

>  <u>
µg/mL

>  <MIC>
2

$$$$

Attention now shifts to the item below.
Value of measured MIC for the entry "N[C@H]1C[C@H](N2C(=O)N([C@H]3C[C@H](N)C3)C(=O)C(Cc3cc(Br)cc(Br)c3)(Cc3cc(Br)cc(Br)c3)C2=O)C1.O=C(O)C(F)(F)F.O=C(O)C(F)(F)F" : 4

====

- Tested on: Pseudomonas aeruginosa
- run-description: Antibacterial activity against Pseudomonas aeruginosa ATCC 27853 incubated for 48 hrs and measured by broth microdilution assay
- Assay type: functional
reported-endpoint: MIC (µg/mL)
Give bare numbers, in µg/mL.

>  <compound>
NCCCN1C(=O)N(CCCN)C(=O)C(Cc2ccc(C(F)(F)F)cc2)(Cc2ccc(C(F)(F)F)cc2)C1=O.O=C(O)C(F)(F)F.O=C(O)C(F)(F)F

>  <u>
µg/mL

>  <value>
128

$$$$
>  <compound>
N=C(N)NCCCCN1C(=O)N(CCCCNC(=N)N)C(=O)C(Cc2cc(Br)cc(Br)c2)(Cc2cc(Br)cc(Br)c2)C1=O.O=C(O)C(F)(F)F.O=C(O)C(F)(F)F

>  <u>
µg/mL

>  <value>
8

$$$$
>  <compound>
N=C(N)NCCCCN1C(=O)N(CCCCNC(=N)N)C(=O)C(Cc2ccc(Br)c3ccccc23)(Cc2ccc(Br)c3ccccc23)C1=O.O=C(O)C(F)(F)F.O=C(O)C(F)(F)F

>  <u>
µg/mL

>  <value>
8

$$$$
>  <compound>
N=C(N)NCCCN1C(=O)N(CCCNC(=N)N)C(=O)C(Cc2ccc(C(F)(F)F)cc2)(Cc2ccc(C(F)(F)F)cc2)C1=O.O=C(O)C(F)(F)F.O=C(O)C(F)(F)F

>  <u>
µg/mL

>  <value>
256

$$$$
>  <compound>
O=C([O-])C(F)(F)F.O=C([O-])C(F)(F)F.O=C1N(CCCC[n+]2ccccc2)C(=O)C(Cc2cc(Br)cc(Br)c2)(Cc2cc(Br)cc(Br)c2)C(=O)N1CCCC[n+]1ccccc1

>  <u>
µg/mL

>  <value>
128

$$$$
>  <compound>
NCCCCN1C(=O)N(CCCCN)C(=O)C(Cc2cc(Br)cc(Br)c2)(C2CCCC2)C1=O.O=C(O)C(F)(F)F.O=C(O)C(F)(F)F

>  <u>
µg/mL

>  <value>
64

$$$$
>  <compound>
N=C(N)NCCCCN1C(=O)N(CCCCNC(=N)N)C(=O)C(Cc2cc(Br)cc(Br)c2)(Cc2ccc3ccccc3n2)C1=O.O=C(O)C(F)(F)F.O=C(O)C(F)(F)F (configuration not stated)

>  <u>
µg/mL

>  <value>
32

$$$$
>  <compound>
N[C@H]1C[C@H](N2C(=O)N([C@H]3C[C@H](N)C3)C(=O)C(Cc3cc(Br)cc(Br)c3)(Cc3cc(Br)cc(Br)c3)C2=O)C1.O=C(O)C(F)(F)F.O=C(O)C(F)(F)F

>  <u>
µg/mL

>  <value>
8

$$$$
>  <compound>
NCCCCN1C(=O)N(CCCCN)C(=O)C(Cc2cc(Br)cc(Br)c2)(Cc2cc(C(F)(F)F)cc(C(F)(F)F)c2)C1=O.O=C(O)C(F)(F)F.O=C(O)C(F)(F)F

>  <u>
µg/mL

>  <value>
8

$$$$
>  <compound>
NCCN1C(=O)N(CCN)C(=O)C(Cc2cc(Br)cc(Br)c2)(Cc2cc(Br)cc(Br)c2)C1=O.O=C(O)C(F)(F)F.O=C(O)C(F)(F)F

>  <u>
µg/mL

>  <value>
8

$$$$

Attention now shifts to the item below.
Value of measured MIC for the entry "CCCCCCC1(CCCCCC)C(=O)N(CCCCNC(=N)N)C(=O)N(CCCCNC(=N)N)C1=O.O=C(O)C(F)(F)F.O=C(O)C(F)(F)F" : 16

====

Field: MIC. Provide a value for each of the molecules that follow.
- Tested on: Pseudomonas aeruginosa
- run-description: Antibacterial activity against Pseudomonas aeruginosa ATCC 27853 incubated for 48 hrs and measured by broth microdilution assay
- Assay type: functional
One number for each entry, in µg/mL.

// solved cases for MIC follow
>  <compound-string>
CCCCCCC1(Cc2cc(Br)cc(Br)c2)C(=O)N(CCCCN)C(=O)N(CCCCN)C1=O.O=C(O)C(F)(F)F.O=C(O)C(F)(F)F

>  <u>
µg/mL

>  <value>
16

$$$$
>  <compound-string>
N=C(N)NCCCCN1C(=O)N(CCCCNC(=N)N)C(=O)C(Cc2ccc3cc(Br)ccc3n2)(Cc2ccc3cc(Br)ccc3n2)C1=O.O=C(O)C(F)(F)F.O=C(O)C(F)(F)F

>  <u>
µg/mL

>  <value>
128

$$$$
>  <compound-string>
CC(C)(C)c1ccc(CC2(Cc3cc(Br)cc(Br)c3)C(=O)N(CCCCN)C(=O)N(CCCCN)C2=O)cc1.O=C(O)C(F)(F)F.O=C(O)C(F)(F)F

>  <u>
µg/mL

>  <value>
8

$$$$

Hey, can you go through the list below and give me MIC for every item?
1. N=C(N)NCCCN1C(=O)N(CCCNC(=N)N)C(=O)C(Cc2cc(Br)cc(Br)c2)(Cc2cc(Br)cc(Br)c2)C1=O.O=C(O)C(F)(F)F.O=C(O)C(F)(F)F
2. CCCCCCC1(CCCCCC)C(=O)N(CCCCN)C(=O)N(CCCCN)C1=O.O=C(O)C(F)(F)F.O=C(O)C(F)(F)F

Response:
8
64
